procedure summary: qHTS RealTime-Glo MT Cell Viability Assay in HepG2 cells - 16 hour (AID 1224885); further: nearly all actives have a fitted effect of over 50% in size
setup conditions: RealTime-Glo luminescence; series mostly up to 76.8 µM
Source text: U.S. Tox21 Program National Center for Advancing Translational Sciences [NCATS] NIH Chemical Genomics Center [NCGC] U.S. Environmental Protection Agency [EPA] National Institutes of Environmental Health Sciences [NIEHS] National Toxicology Program [NTP] U.S. Food and Drug Administration [FDA] Tox21 Assay Overview: Measure of cell viability is critical in the cell-base assay. Analysis of cell viability is necessary for the characterization of cell responses to cytotoxic drugs and environmental stress. […]
Results filed as inconclusive are left out. The source made the active and inactive calls. The call rests on the fitted dose curve; in most records, active means well fitted cell-killing curve with a large enough effect in the repeat runs; inconclusive means weak or mixed curves; inactive means flat fitted curve, though single readings scatter.
Outcomes: y = active, n = inactive

>  <compound>
CC1=CC(=O)c2ccccc2C1=O

>  <discrete label>
y

$$$$
>  <compound>
COc1ccc(COC(C)=O)cc1

>  <discrete label>
n

$$$$
>  <compound>
CCC(C)(Oc1ccc(C2(c3ccc(OC(C)(CC)C(=O)O)cc3)CCCCC2)cc1)C(=O)O (stereo not given)

>  <discrete label>
n

$$$$
>  <compound>
O=C(O)Cn1cnnn1

>  <discrete label>
n

$$$$
>  <compound>
O=C(O)CCc1ccccc1

>  <discrete label>
n

$$$$
>  <compound>
CC[C@@H](N)CO

>  <discrete label>
n

$$$$
>  <compound>
c1ccc2c(c1)-c1cccc3c1c-2cc1ccccc13

>  <discrete label>
n

$$$$
>  <compound>
Oc1ccc(Cl)cc1Cc1cc(Cl)ccc1O

>  <discrete label>
n

$$$$
>  <compound>
Cc1cccc2n[nH]nc12

>  <discrete label>
n

$$$$
>  <compound>
c1ccc2n[nH]nc2c1

>  <discrete label>
n

$$$$
>  <compound>
CCCCN(CCO)CCCC

>  <discrete label>
n

$$$$
>  <compound>
CC1=C(C=O)C(C)(C)CC=C1

>  <discrete label>
n

$$$$
>  <compound>
[Cl][In]([Cl])[Cl]

>  <discrete label>
n

$$$$
>  <compound>
c1ccc2cc3c(ccc4ccccc43)cc2c1

>  <discrete label>
n

$$$$
>  <compound>
O=C(O)c1cc(Cl)cc(Cl)c1

>  <discrete label>
n

$$$$

* * *

procedure summary: A CellTox Green Cytotoxicity Assay to monitor cytotoxicity in HepG2 cells - 40 hour (AID 1224879); further: nearly all actives have a fitted effect of over 40% in size
setup conditions: CellTox Green fluorescence; series mostly up to 76.8 µM
Records with an inconclusive call do not appear. The source made the active and inactive calls. The call rests on the fitted dose curve; in most records, active means well fitted activation curve with a large enough effect in the repeat runs; inconclusive means weak or mixed curves; inactive means flat fitted curve, though single readings scatter.
Outcomes: active, inactive

>  <compound>
O=C(O)c1cccc(C(=O)O)c1

>  <discrete label>
inactive

$$$$
>  <compound>
O=C1Nc2ccccc2C1(c1ccc(O)cc1)c1ccc(O)cc1

>  <discrete label>
inactive

$$$$
>  <compound>
Nc1ccc(O)cc1

>  <discrete label>
inactive

$$$$
>  <compound>
CC(C)(C)NCC(O)c1cc(O)cc(O)c1 (stereo unspecified)

>  <discrete label>
inactive

$$$$
>  <compound>
CCCCOCCOC(=O)c1ccccc1C(=O)OCCOCCCC

>  <discrete label>
inactive

$$$$
>  <compound>
NC(N)=Nc1nc(CSCC/C(N)=N/S(N)(=O)=O)cs1

>  <discrete label>
inactive

$$$$
>  <compound>
CN1C(=O)c2ccc([N+](=O)[O-])cc2C1=O

>  <discrete label>
inactive

$$$$
>  <compound>
Cc1ccnc2c1NC(=O)c1cccnc1N2C1CC1

>  <discrete label>
inactive

$$$$
>  <compound>
c1ccc2n[nH]nc2c1

>  <discrete label>
inactive

$$$$
>  <compound>
COc1ccc(CCN(C)CCCC(C#N)(c2ccc(OC)c(OC)c2)C(C)C)cc1OC (stereo unspecified)

>  <discrete label>
active

$$$$
>  <compound>
BrC1CCC(Br)C(Br)CCC(Br)C(Br)CCC1Br (stereo unspecified)

>  <discrete label>
inactive

$$$$
>  <compound>
CC(C)(O)CCC(C)(C)O

>  <discrete label>
inactive

$$$$
>  <compound>
O=C(O)CCc1ccccc1

>  <discrete label>
inactive

$$$$
>  <compound>
CCC(=O)/C=C/C1C(C)=CCCC1(C)C (stereo unspecified)

>  <discrete label>
inactive

$$$$
>  <compound>
CC1COc2c(N3CCN(C)CC3)c(F)cc3c(=O)c(C(=O)O)cn1c23 (stereo unspecified)

>  <discrete label>
inactive

$$$$
>  <compound>
c1cnc2cc3c(cc2n1)C1CNCC3C1

>  <discrete label>
inactive

$$$$
>  <compound>
C[N+]1([O-])CCOCC1

>  <discrete label>
inactive

$$$$
>  <compound>
CC(C)(C)c1ccccc1

>  <discrete label>
inactive

$$$$
>  <compound>
CCc1cc(C(C)(C)C)c(O)c(C(C)(C)C)c1

>  <discrete label>
inactive

$$$$
>  <compound>
CC(C)(C)c1cc(C(C)(C)C)c(O)c(C(C)(C)C)c1

>  <discrete label>
active

$$$$
>  <compound>
Cc1ccc(S(=O)(=O)Oc2ccc(N=Nc3ccc(-c4ccc(N=Nc5c(O)ccc6cc(S(=O)(=O)O)cc(S(=O)(=O)O)c56)c(C)c4)cc3C)cc2)cc1

>  <discrete label>
inactive

$$$$
>  <compound>
CC(=O)O[C@]1(C(C)=O)CC[C@H]2[C@@H]3C[C@H](C)C4=CC(=O)CC[C@]4(C)[C@H]3CC[C@@]21C

>  <discrete label>
inactive

$$$$
>  <compound>
CN(C)c1ccc2nc3ccc(=[N+](C)C)cc-3sc2c1

>  <discrete label>
inactive

$$$$
>  <compound>
Cc1cc(C2(c3cc(C)c(O)cc3C)OS(=O)(=O)c3ccccc32)c(C)cc1O

>  <discrete label>
inactive

$$$$
>  <compound>
Nc1cc(S(=O)(=O)O)cc2cc(S(=O)(=O)O)cc(O)c12

>  <discrete label>
inactive

$$$$
>  <compound>
OCCN1CCNCC1

>  <discrete label>
inactive

$$$$
>  <compound>
CC[C@@H](N)CO

>  <discrete label>
inactive

$$$$
>  <compound>
Cc1scc2c1N(C(=O)CN1CCN(C)CC1)c1ccccc1NC2=O

>  <discrete label>
inactive

$$$$
>  <compound>
CCC(CO)(CO)COCC(CC)(CO)CO

>  <discrete label>
inactive

$$$$
>  <compound>
CC(=O)OCC1=C(C(=O)O)N2C(=O)[C@@H](NC(=O)Cc3cccs3)[C@H]2SC1

>  <discrete label>
inactive

$$$$
>  <compound>
Cc1cc(C(C)(C)C)c(O)c(C(C)(C)C)c1

>  <discrete label>
inactive

$$$$
>  <compound>
COc1ccc(COC(C)=O)cc1

>  <discrete label>
inactive

$$$$
>  <compound>
Nc1nc(=S)c2[nH]cnc2[nH]1

>  <discrete label>
inactive

$$$$
>  <compound>
CC[C@]1(O)C[C@@H]2CN(CCc3c([nH]c4ccccc34)[C@@](C(=O)OC)(c3cc4c(cc3OC)N(C)[C@H]3[C@@](O)(C(=O)OC)[C@H](OC(C)=O)[C@]5(CC)C=CCN6CC[C@]43[C@@H]65)C2)C1

>  <discrete label>
inactive

$$$$
>  <compound>
NC12CC3CC(CC(C3)C1)C2

>  <discrete label>
inactive

$$$$
>  <compound>
CC(N)=O

>  <discrete label>
inactive

$$$$
>  <compound>
CCCCCC(=O)O[C@]1(C(C)=O)CC[C@H]2[C@@H]3CCC4=CC(=O)CC[C@]4(C)[C@H]3CC[C@@]21C

>  <discrete label>
inactive

$$$$
>  <compound>
NC(N)=NC(=O)Cc1c(Cl)cccc1Cl

>  <discrete label>
inactive

$$$$
>  <compound>
CCOc1ccccc1C(N)=O

>  <discrete label>
inactive

$$$$
>  <compound>
COc1cc(C(=S)N2CCOCC2)ccc1O

>  <discrete label>
inactive

$$$$
>  <compound>
CCCOC(=O)c1cc(O)c(O)c(O)c1

>  <discrete label>
inactive

$$$$
>  <compound>
C/C=C/c1ccc(OCC)c(O)c1

>  <discrete label>
inactive

$$$$
>  <compound>
O=C(Nc1ccccc1SSc1ccccc1NC(=O)c1ccccc1)c1ccccc1

>  <discrete label>
active

$$$$
>  <compound>
CC(=O)OCCOCCOCCOC(C)=O

>  <discrete label>
inactive

$$$$
>  <compound>
Cc1cccc([N+](=O)[O-])c1C(=O)O

>  <discrete label>
inactive

$$$$
>  <compound>
C=C(C)C(=O)O

>  <discrete label>
inactive

$$$$
>  <compound>
CCC[C@H](N[C@@H](C)C(=O)N1[C@H](C(=O)O)C[C@@H]2CCCC[C@@H]21)C(=O)OCC

>  <discrete label>
inactive

$$$$
>  <compound>
CC(C)(C)NCC(O)COc1ccccc1OCC1CCCO1 (stereo unspecified)

>  <discrete label>
inactive

$$$$
>  <compound>
OCCOCCN1CCN(C(c2ccccc2)c2ccc(Cl)cc2)CC1 (stereo unspecified)

>  <discrete label>
active

$$$$
>  <compound>
CC(C(O)c1ccc(O)cc1)N1CCC(Cc2ccccc2)CC1 (stereo unspecified)

>  <discrete label>
inactive

$$$$
>  <compound>
CO[Si](OC)(OC)c1ccccc1

>  <discrete label>
inactive

$$$$
